Values were extracted from patent US4593090A.

Parameter: ED (maximum ILS). Scope: all listed entries.
# System: Leukemia L1210
# measurement-protocol: Activity against Leukemia L1210, intraperitoneal, increase in life span of mice
# Format: in vivo, female mice (BDF1 family)
# conditions-used: Mus musculus, L1210, ip, ip once a day for 5 successive days; daily dosage giving maximum increase of life span; read-out: O.D. (optimum dosage)
Numbers only; they are read as mg/kg.

CCCCN(C[C@@H]1O[C@@H](OCC2CC2)[C@@H](O)[C@H](O)[C@@H]1O)C(=O)N(CCCl)N=O :: 150
C=C(C)CN(C[C@H]1O[C@H](OC(C)CC)[C@H](O)[C@@H](O)[C@@H]1O)C(=O)N(CCCl)N=O (some centres unmarked) :: 170
CCN(C(=O)N(CCCl)N=O)[C@H]1[C@@H](OCC(C)C)O[C@H](CO)[C@H](O)[C@@H]1O :: 160
CCOCCN(C[C@H]1O[C@H](OCC(C)C)[C@H](O)[C@@H](O)[C@H]1O)C(=O)N(CCCl)N=O :: 200
CC(C)CN(C[C@H]1O[C@@H](OCCN2CCOCC2)[C@H](O)[C@@H](O)[C@@H]1O)C(=O)N(CCCl)N=O :: 160

Now, please, on to the next compound.
Give me measured ED (maximum ILS), please, for this compound: CCCCO[C@H]1O[C@H](CO)[C@@H](O)[C@H](O)[C@H]1N(CCCOC)C(=O)N(CCCl)N=O
190

---

# Test system: Leukemia L1210
# measurement-protocol: Activity against Leukemia L1210, intraperitoneal, increase in life span of mice
# Assay type: in vivo, female mice (BDF1 family)
# conditions-used: ip; O.D./ILS30
Parameter threshold = 40. Response is 1 when Therapeutic ratio TR meets or exceeds it, else 0.

# count of solved cases: 2
COC(C)CN(C[C@H]1O[C@H](OC2CCCCC2)[C@H](O)[C@@H](O)[C@H]1O)C(=O)N(CCCl)N=O (stereo partly shown) :: 1
CCC(C)OC1OC(CO)C(O)C(N(CC(C)C)C(=O)N(CCCl)N=O)C1O (stereo not shown) :: 0

Could you please find out whether COCC(C)N(C[C@H]1O[C@H](OCC(C)C)[C@H](O)[C@@H](O)[C@H]1O)C(=O)N(CCCl)N=O (stereo partly shown) has Therapeutic ratio TR that meets 40 or exceeds it?
1

Could you please find out whether CO[C@H]1O[C@H](CO)[C@@H](O)[C@H](O)[C@H]1NC(=O)N(CCCl)N=O [Compound 2MCαG, reference compound] has Therapeutic ratio TR that meets 40 or exceeds it?
0

Could you please find out whether CCCCCCN(C[C@H]1O[C@H](OC2CCCCC2)[C@H](O)[C@@H](O)[C@H]1O)C(=O)N(CCCl)N=O has Therapeutic ratio TR that meets 40 or exceeds it?
0

Could you please find out whether CC(C)CO[C@H]1O[C@H](CO)[C@H](N(CC(C)C)C(=O)N(CCCl)N=O)[C@H](O)[C@H]1O has Therapeutic ratio TR that meets 40 or exceeds it?
0

---

# Tested on: Leukemia L1210
# measurement-protocol: Activity against Leukemia L1210, intraperitoneal, increase in life span of mice
# Type: in vivo, female mice (BDF1 family)
# conditions-used: ip; O.D./ILS30
Labelling: Therapeutic ratio TR reported below 40 becomes yes (1); at or above becomes no (0).

# count of solved cases: 3
CC(C)CO[C@@H]1OC[C@H](N(C(=O)N(CCCl)N=O)C2CCCCC2)[C@H](O)[C@H]1O [Compound 152] :: no (0)
CO[C@H]1O[C@H](CN(CCO)C(=O)N(CCCl)N=O)[C@@H](O)[C@H](O)[C@H]1O [Compound 6MCαGHE, reference compound] :: yes (1)
CC(C)CO[C@H]1O[C@H](CO)[C@H](O)[C@H](N(CC(C)C)C(=O)N(CCCl)N=O)[C@H]1O [Compound 125] :: yes (1)

Criterion: Therapeutic ratio TR strictly below 40. Is it met by CCOCCN(C[C@H]1O[C@H](OC2CCCCC2)[C@H](O)[C@@H](O)[C@@H]1O)C(=O)N(CCCl)N=O [Compound 40] ?
no (0)

Criterion: Therapeutic ratio TR strictly below 40. Is it met by C=C(C)CN(C(=O)N(CCCl)N=O)C1C(O)C(CO)OC(OC(C)CC)C1O (stereo not drawn) [Compound 85] ?
yes (1)

Criterion: Therapeutic ratio TR strictly below 40. Is it met by CCOCCCN(C[C@H]1O[C@H](OC(C)CC)[C@H](O)[C@@H](O)[C@@H]1O)C(=O)N(CCCl)N=O (stereo partly drawn) [Compound 19] ?
no (0)

Criterion: Therapeutic ratio TR strictly below 40. Is it met by COCCCO[C@H]1O[C@H](CN(C(=O)N(CCCl)N=O)C(C)(C)C)[C@@H](O)[C@H](O)[C@H]1O [Compound 179] ?
no (0)

Criterion: Therapeutic ratio TR strictly below 40. Is it met by COCCCO[C@@H]1O[C@H](CN(CC(C)C)C(=O)N(CCCl)N=O)[C@@H](O)[C@H]1O [Compound 167] ?
no (0)

Criterion: Therapeutic ratio TR strictly below 40. Is it met by CC(C)COC1OC(CO)C(N(CC2CC2)C(=O)N(CCCl)N=O)C(O)C1O (stereo not drawn) [Compound 95] ?
yes (1)

---

# System: Leukemia L1210
# measurement-protocol: Activity against Leukemia L1210, intraperitoneal, increase in life span of mice
# Type: in vivo, female mice (BDF1 family)
# conditions-used: ip; O.D./ILS30
Parameter threshold = 40. Response is condition met when Therapeutic ratio TR meets or exceeds it, else condition not met.

Could you please find out whether CCC(COC)O[C@H]1O[C@H](CN(CC(C)(C)C)C(=O)N(CCCl)N=O)[C@@H](O)[C@H](O)[C@H]1O (stereo partly shown) [Compound 196] has Therapeutic ratio TR that meets 40 or exceeds it?
condition met

---

# Tested on: Leukemia L1210
# measurement-protocol: Activity against Leukemia L1210, intraperitoneal, increase in life span of mice
# Type: in vivo, female mice (BDF1 family)
# conditions-used: ip; O.D./ILS30
reported-metric: Therapeutic ratio TR
Write no unit; give the number alone.

Sample records with Therapeutic ratio TR:
CCCCO[C@H]1O[C@H](CO)[C@H](O)[C@H](O)[C@H]1N(CCC)C(=O)N(CCCl)N=O :: 33.6
CCCCOC1OC(CO)C(O)C(O)C1N(CC1CCCO1)C(=O)N(CCCl)N=O (centres unmarked) :: 35.8
COCCCN(C[C@H]1O[C@H](OCC(C)C)[C@@H](O)[C@@H](O)[C@H]1O)C(=O)N(CCCl)N=O :: 56.4
CC(C)CO[C@H]1O[C@H](CO)[C@H](O)[C@H](O)[C@H]1N(CC(C)C)C(=O)N(CCCl)N=O :: 29.2
CC(C)CN(C(=O)N(CCCl)N=O)C1C(OC2CCCCC2)OC(CO)C(O)C1O (centres unmarked) :: 37.2

Report its Therapeutic ratio TR with Leukemia L1210 as the test system: COC(C)CO[C@H]1O[C@H](CN(CC2CCCO2)C(=O)N(CCCl)N=O)[C@H](O)[C@H](O)[C@H]1O (some centres unmarked)
60.6

Report its Therapeutic ratio TR with Leukemia L1210 as the test system: CCCCN(C[C@H]1O[C@H](OC)[C@H](O)[C@@H](O)[C@@H]1O)C(=O)N(CCCl)N=O [Compound 6MCαGB, reference compound]
22.4

Report its Therapeutic ratio TR with Leukemia L1210 as the test system: CC(C)CO[C@H]1O[C@H](CN(Cc2ccccc2)C(=O)N(CCCl)N=O)[C@@H](O)[C@H](O)[C@H]1O
38.2

---

# Test system: Leukemia L1210
# measurement-protocol: Activity against Leukemia L1210, intraperitoneal, increase in life span of mice
# Type: in vivo, female mice (BDF1 family)
# conditions-used: Mus musculus, L1210, ip, ip once a day for 5 successive days; daily dosage giving maximum increase of life span; read-out: O.D. (optimum dosage)
reported-metric: ED (maximum ILS) (mg/kg)
Numbers only; they are read as mg/kg.

Sample records with ED (maximum ILS):
COc1ccc(CO[C@H]2O[C@H](CN(C(=O)N(CCCl)N=O)C(C)(C)C)[C@@H](O)[C@H](O)[C@H]2O)cc1 :: 140
CCC(COC)O[C@H]1O[C@H](CN(CC(C)(C)C)C(=O)N(CCCl)N=O)[C@@H](O)[C@H](O)[C@H]1O (stereo partly shown) :: 170
COCCCO[C@H]1O[C@H](CN(C(=O)N(CCCl)N=O)C(C)(C)C)[C@@H](O)[C@H](O)[C@H]1O :: 180
CCCCO[C@H]1O[C@H](CN(CCC)C(=O)N(CCCl)N=O)[C@H](O)[C@H](O)[C@H]1O :: 160
COCC(C)N(C[C@H]1O[C@H](OCCc2ccccc2)[C@@H](O)[C@H](O)[C@@H]1O)C(=O)N(CCCl)N=O (stereo partly shown) :: 160

Give me measured ED (maximum ILS), please, for this compound: CO[C@H]1O[C@H](CO)[C@@H](O)[C@H](NC(=O)N(CCCl)N=O)[C@H]1O [KCNUM, reference compound]
25.4

Give me measured ED (maximum ILS), please, for this compound: COC(C)CN(C(=O)N(CCCl)N=O)C1C(O)C(CO)OC(OC2CCCCC2)C1O (stereo not shown)
200

Give me measured ED (maximum ILS), please, for this compound: CC(C)COC1OC(CO)C(N(C(=O)N(CCCl)N=O)C(C)C)C(O)C1O (stereo not shown)
100

Give me measured ED (maximum ILS), please, for this compound: CC(C)CN(C(=O)N(CCCl)N=O)[C@H]1[C@H](O)[C@H](OC2CCCCC2)O[C@@H]1CO
160

Give me measured ED (maximum ILS), please, for this compound: CC(C)CO[C@@H]1O[C@H](CN(CCC(C)(C)C)C(=O)N(CCCl)N=O)[C@@H](O)[C@H](O)[C@H]1O
150

Give me measured ED (maximum ILS), please, for this compound: COCC(C)N(C(=O)N(CCCl)N=O)[C@H]1[C@@H](O)[C@@H](CO)O[C@H](OCC(C)C)[C@@H]1O (stereo partly shown)
250

Give me measured ED (maximum ILS), please, for this compound: COCC(C)N(C(=O)N(CCCl)N=O)[C@H]1[C@@H](OCC(C)C)O[C@H](CO)[C@H](O)[C@@H]1O (stereo partly shown)
210

Give me measured ED (maximum ILS), please, for this compound: CCCCO[C@H]1O[C@H](CO)[C@H](O)[C@H](O)[C@H]1N(C)C(=O)N(CCCl)N=O
130

Give me measured ED (maximum ILS), please, for this compound: CC(C)CN(C[C@H]1O[C@H](OCc2ccccc2)[C@@H](O)[C@H](O)[C@@H]1O)C(=O)N(CCCl)N=O
130

Give me measured ED (maximum ILS), please, for this compound: CC(C)CN(C(=O)N(CCCl)N=O)[C@@H]1[C@@H](O)[C@@H](OC2CCCCC2)OC[C@H]1O
150

Give me measured ED (maximum ILS), please, for this compound: CCCCO[C@H]1O[C@H](CO)[C@@H](O)[C@H](O)[C@H]1N(CCOCCO)C(=O)N(CCCl)N=O
190

Give me measured ED (maximum ILS), please, for this compound: CCC(C)O[C@H]1O[C@H](CN(CCC(C)(C)C)C(=O)N(CCCl)N=O)[C@@H](O)[C@H](O)[C@H]1O (stereo partly shown)
150

Give me measured ED (maximum ILS), please, for this compound: O=NN(CCCl)C(=O)N(C1CCCCC1)C1C(OCC2CCCO2)OC(CO)C(O)C1O (stereo not shown)
160

Give me measured ED (maximum ILS), please, for this compound: COCCCOC1OC(CO)C(O)C(N(CC(C)C)C(=O)N(CCCl)N=O)C1O (stereo not shown)
200

Give me measured ED (maximum ILS), please, for this compound: CC(C)CO[C@@H]1OC[C@H](N(C(=O)N(CCCl)N=O)C2CCCCC2)[C@H](O)[C@H]1O
170

Give me measured ED (maximum ILS), please, for this compound: O=NN(CCCl)C(=O)N(Cc1ccccc1)C[C@H]1O[C@H](OC2CCCCC2)[C@H](O)[C@@H](O)[C@@H]1O
150

Give me measured ED (maximum ILS), please, for this compound: CC(C)CO[C@H]1O[C@H](CN(CC(C)C)C(=O)N(CCCl)N=O)[C@@H](O)[C@H](O)[C@H]1O
170

Give me measured ED (maximum ILS), please, for this compound: COCCN(C[C@H]1O[C@H](OC(C)COC)[C@H](O)[C@@H](O)[C@@H]1O)C(=O)N(CCCl)N=O (stereo partly shown)
150

Give me measured ED (maximum ILS), please, for this compound: COCCN(C(=O)N(CCCl)N=O)[C@@H]1[C@@H](OCCc2ccccc2)O[C@H](CO)[C@@H](O)[C@H]1O
160
